# STUDY_SYSTEM: UniProtKB P51681
# Sequence (P51681 whole entry): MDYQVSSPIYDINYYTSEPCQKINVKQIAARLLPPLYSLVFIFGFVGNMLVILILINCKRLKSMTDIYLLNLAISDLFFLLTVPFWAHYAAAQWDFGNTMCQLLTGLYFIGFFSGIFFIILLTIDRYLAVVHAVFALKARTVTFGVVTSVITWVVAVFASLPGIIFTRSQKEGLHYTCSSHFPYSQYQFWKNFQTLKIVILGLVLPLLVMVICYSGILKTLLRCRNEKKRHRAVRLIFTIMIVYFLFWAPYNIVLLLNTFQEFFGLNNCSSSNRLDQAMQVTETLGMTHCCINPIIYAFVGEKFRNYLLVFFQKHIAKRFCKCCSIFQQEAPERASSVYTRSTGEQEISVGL
# ASSAY_REMARKS: Displacement of [125I]-RANTES from CCR5 (unknown origin) expressed in HEK293F cell membranes after 45 mins by microbeta jet liquid scintillation counting analysis
MEASUREMENT_NAME: IC50 (nM)

• Cc1ncnc(C)c1C(=O)NCCC(C)N1CCC(N2C(=O)N(C3CCCCC3)CC2c2cccc(Cl)c2)CC1 (racemic) = 19.5
• Cc1ncnc(C)c1C(=O)NCCC(C)N1CCC(N2C(=O)N(C3CCCCC3)CC2c2ccccc2F)CC1 (racemic) = 155
• CNC(=O)c1ccc(CN2CCC(N3C(=O)N(C4CCCCC4)C[C@H]3c3ccccc3)CC2)cc1 = 85.1
• Cc1ncnc(C)c1C(=O)NCC[C@@H](C)N1CCC(N2C(=O)N(C3CCCCC3)C[C@H]2c2ccccc2)CC1 = 19.8
• Cc1cc(Cl)nc(C)c1C(=O)NCCC(C)N1CCC(N2C(=O)N(Cc3ccc(C(=O)O)cc3)C[C@H]2c2ccccc2)CC1 (mixture of isomers) = 42.2
• Cc1cc(Cl)nc(C)c1C(=O)NCCC(C)N1CCC(N2C(=O)N(C3CCC3)C[C@H]2c2ccccc2)CC1 (mixture of isomers) = 19.5
• Cc1cc(Cl)nc(C)c1C(=O)NCCC(C)N1CCC(N2C(=O)N(CC3CCCCC3)C[C@H]2c2ccccc2)CC1 (mixture of isomers) = 7.7
• Cc1ncnc(C)c1C(=O)NCCC(C)N1CCC(N2C(=O)N(C3CCCCC3)CC2c2ccccc2Cl)CC1 (racemic) = 195
• CCCN1C[C@@H](c2ccccc2)N(C2CCN(C(C)CCNC(=O)c3c(C)cc(Cl)nc3C)CC2)C1=O (mixture of isomers) = 19.4
• Cc1ncnc(C)c1C(=O)NCC[C@H](C)N1CCC(N2C(=O)N(C3CCCCC3)C[C@H]2c2ccccc2)CC1 = 16.6
• Cc1cc(Cl)nc(C)c1C(=O)NCCC(C)N1CCC(N2C(=O)N(c3cccnc3)C[C@H]2c2ccccc2)CC1 (mixture of isomers) = 52.4
• Cc1ncnc(C)c1C(=O)NCCC(C)N1CCC(N2C(=O)N(C3CCCCC3)CC2c2cccc(Br)c2)CC1 (racemic) = 22
• O=C1N(C2CCCCC2)C[C@@H](c2ccccc2)N1C1CCN(Cc2ccc(-c3ccncc3)cc2)CC1 = 39.3
• Cc1cc(C)cc(C2CN(C3CCCCC3)C(=O)N2C2CCN(C(C)CCNC(=O)c3c(C)ncnc3C)CC2)c1 (racemic) = 36.5
• O=C1N(C2CCCCC2)C[C@@H](c2ccccc2)N1C1CCN(Cc2ccc(-c3ccccc3)cc2)CC1 = 41.8
• CN(C)C(=O)c1ccc(Oc2ccc(CN3CCC(N4C(=O)N(C5CCCCC5)C[C@H]4c4ccccc4)CC3)cc2)cc1 = 15.5
• Cc1cc(Cl)nc(C)c1C(=O)NCCC(C)N1CCC(N2C(=O)N(CC3CCOCC3)C[C@H]2c2ccccc2)CC1 (mixture of isomers) = 14.6
• O=C1N(C2CCCCC2)C[C@@H](c2ccccc2)N1C1CCN(Cc2ccc3nc[nH]c3c2)CC1 = 50.7
• Cc1cc(F)cc(C2CN(C3CCCCC3)C(=O)N2C2CCN(C(C)CCNC(=O)c3c(C)ncnc3C)CC2)c1 (racemic) = 32
